Data provenance is patent US20220363757A1.

- TARGET_SYSTEM: T1, R-PE-labeled recombinant human LAG-3-Fc chimera protein (R&D Systems) (human, UniProt P18627 23-450, conjugated to R-phycoerythrin)
- T1 construct: bought; also called LAG-3-Fc-PE; soluble LAG-3; not shown: Fc of the bought chimera, not described
- T1 sequence: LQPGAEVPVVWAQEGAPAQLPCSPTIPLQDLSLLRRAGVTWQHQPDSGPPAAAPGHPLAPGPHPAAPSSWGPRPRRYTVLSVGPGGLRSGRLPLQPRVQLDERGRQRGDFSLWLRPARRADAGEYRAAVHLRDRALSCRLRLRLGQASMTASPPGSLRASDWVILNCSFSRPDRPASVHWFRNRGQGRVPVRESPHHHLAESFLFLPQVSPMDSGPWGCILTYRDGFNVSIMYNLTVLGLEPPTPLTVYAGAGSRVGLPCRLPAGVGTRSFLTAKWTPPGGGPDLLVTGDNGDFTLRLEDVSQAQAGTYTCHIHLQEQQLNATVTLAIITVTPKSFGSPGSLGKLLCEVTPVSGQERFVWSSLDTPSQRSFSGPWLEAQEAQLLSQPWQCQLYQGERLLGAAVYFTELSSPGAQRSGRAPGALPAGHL
- PROCEDURE_SUMMARY: flow cytometric competition, LAG-3-Fc-PE binding to MHCII on A375 cells, antibody 20 ug/mL

[
  {
    "BINDER": "antibody 15011 (antibody, human IgG1, lambda, L234A L235A, V domains shown, humanized chicken-derived antibody, human IgG1 constant region, lambda (IGLC1*01)) VH: EVQLLESGGGLVQPGGSLRLSCAASGFDFRSYAMMWVRQAPGKGLEWVGGINGEVGGSNTYYAPAVKGRATISRDNSKNTLYLQMNSLRAEDTAVYYCVKGAGACGICNDDIDAWGQGTLVTVSS VL: SYELTQDPAVSVALGQTVRITCSGAGSYAGSYYYGWHQQKPGQAPVTVIYDNDKRPSNIPDRFSGSSSGNTASLTITGAQAEDEADYYCGSTNDNDDGGLFGSGTKVTVLG",
    "LAG-3/MHCII Blocking (%)": 92
  },
  {
    "BINDER": "antibody 15532 (antibody, human IgG1, kappa, L234A L235A, V domains shown, OmniRat-derived human IgG1 LALA, kappa) VH: QVQLQQWGAGLLRPSETLSLTCAVYGESFSGYYWNWIRQPPGKGLEWIGEINHSGSTNYNPSLKSRVTISVDTSKTQFSLKLSSVTAADTAVYYCARGWDLLDWNDYWNEYWGQGTLVTVSS VL: EIVLTQSPATLSLSPGERATLSCRASQSVSSYLAWYQQKPGQAPRLLIYDASNRATGIPARFSGSGSGTDFTLTISSLEPEDFAVYYCQQRSNWPLTFGGGTKVEIKR",
    "LAG-3/MHCII Blocking (%)": 89
  }
]
